Conditions: in methyl acetate, 278.15 K
measured-endpoint: solubility (mole fraction)

State its solubility (mole fraction): `C1=Cc2ccccc2Nc2ccccc21`
0.00825

---

Settings: in acetone, 278.15 K
measured-endpoint: solubility (mole fraction)
Lab note: write the figure by itself, no unit.

Recall and state the measured solubility (mole fraction) for `C1=Cc2ccccc2Nc2ccccc21` .
0.0162

---

Conditions: in DMAc, 283.15 K
measured-endpoint: solubility (mole fraction)
Just the number, please, no unit attached.

Item `C1=Cc2ccccc2Nc2ccccc21` : provide solubility (mole fraction)
0.122

---

Details: in methyl acetate, 293.15 K
measured-endpoint: solubility (mole fraction)
In your answer, state the number alone without any accompanying words.

Identify solubility (mole fraction) associated with the molecule `C1=Cc2ccccc2Nc2ccccc21`
0.0118

---

Settings: in n-propyl acetate, 283.15 K
measured-endpoint: solubility (mole fraction)
Respond with the number and no other words.

Identify solubility (mole fraction) associated with the molecule `C1=Cc2ccccc2Nc2ccccc21`
0.0143

---

Settings: in acetone, 313.15 K
measured-endpoint: solubility (mole fraction)
Response field accepts a number only; no unit should be typed.

# return recorded solubility (mole fraction) for input `C1=Cc2ccccc2Nc2ccccc21`
0.0327

---

Conditions: in 1,4-dioxane, 288.15 K
measured-endpoint: solubility (mole fraction)
Give your answer as a number; write no unit.

Item `C1=Cc2ccccc2Nc2ccccc21` : provide solubility (mole fraction)
0.0312

---

Details: in methyl acetate, 308.15 K
measured-endpoint: solubility (mole fraction)

Name the recorded solubility (mole fraction) of the item `C1=Cc2ccccc2Nc2ccccc21` in your answer.
0.017

---

Conditions: in methyl acetate, 283.15 K
measured-endpoint: solubility (mole fraction)

Look up and report measured solubility (mole fraction) for this entry: `C1=Cc2ccccc2Nc2ccccc21`
0.0092

---

Conditions: in ethyl acetate, 318.15 K
measured-endpoint: solubility (mole fraction)
Answer using only a numeral; do not append any unit.

Specify measured solubility (mole fraction) for `C1=Cc2ccccc2Nc2ccccc21` .
0.0271

---

Conditions: in acetone, 303.15 K
measured-endpoint: solubility (mole fraction)

Could you please provide reported solubility (mole fraction) for `C1=Cc2ccccc2Nc2ccccc21` ? Thanks!
0.0268

---

Conditions: in acetone, 288.15 K
measured-endpoint: solubility (mole fraction)
The reply should be a number, written without any unit.

Look up and state reported solubility (mole fraction) for `C1=Cc2ccccc2Nc2ccccc21`
0.0197

---

Conditions: in NMP, 288.15 K
measured-endpoint: solubility (mole fraction)
Keep the answer to the number alone.

Read the entry `C1=Cc2ccccc2Nc2ccccc21` and write its reported solubility (mole fraction).
0.23

---

Settings: in n-butyl acetate, 298.15 K
measured-endpoint: solubility (mole fraction)
The reply should be a number, written without any unit.

Identify measured solubility (mole fraction) associated with `C1=Cc2ccccc2Nc2ccccc21`
0.0208

---

Conditions: in DMAc, 298.15 K
measured-endpoint: solubility (mole fraction)
Returns: the value as a bare number; no unit string appended.

Quick one: give measured solubility (mole fraction) for `C1=Cc2ccccc2Nc2ccccc21`
0.149

---

Settings: in NMP, 303.15 K
measured-endpoint: solubility (mole fraction)

Item `C1=Cc2ccccc2Nc2ccccc21` : provide solubility (mole fraction)
0.251

---

Conditions: in ethyl acetate, 298.15 K
measured-endpoint: solubility (mole fraction)
In your answer, state the number alone without any accompanying words.

Give me measured solubility (mole fraction), please, for this compound: `C1=Cc2ccccc2Nc2ccccc21`
0.0172

---

Conditions: in isopropyl acetate, 293.15 K
measured-endpoint: solubility (mole fraction)
Please give the numeric answer without any surrounding text.

// fetch solubility (mole fraction) given entry `C1=Cc2ccccc2Nc2ccccc21`
0.0133

---

Conditions: in NMP, 318.15 K
measured-endpoint: solubility (mole fraction)
Please respond with just the number, no unit label.

// Input: `C1=Cc2ccccc2Nc2ccccc21` . Output its solubility (mole fraction) only.
0.273

---

Conditions: in NMP, 308.15 K
measured-endpoint: solubility (mole fraction)
Lab note: jot down the number only; don't add units.

Give solubility (mole fraction) for the following compound: `C1=Cc2ccccc2Nc2ccccc21`
0.257

---

Settings: in n-propyl acetate, 288.15 K
measured-endpoint: solubility (mole fraction)
Please reply with the value in numeric form only.

Hello, please tell me recorded solubility (mole fraction) for this one: `C1=Cc2ccccc2Nc2ccccc21`
0.0157

---

Conditions: in n-butyl acetate, 293.15 K
measured-endpoint: solubility (mole fraction)
Reply briefly: the number, and no unit.

Name the recorded solubility (mole fraction) of the item `C1=Cc2ccccc2Nc2ccccc21` in your answer.
0.0189

---

Details: in ethyl acetate, 313.15 K
measured-endpoint: solubility (mole fraction)
Reply briefly: the number, and no unit.

Quickly give me recorded solubility (mole fraction) for `C1=Cc2ccccc2Nc2ccccc21`
0.0243

---

Conditions: in isobutyl acetate, 293.15 K
measured-endpoint: solubility (mole fraction)

Answer with reported solubility (mole fraction) of `C1=Cc2ccccc2Nc2ccccc21`
0.0146

---

Conditions: in DMAc, 303.15 K
measured-endpoint: solubility (mole fraction)
Lab note: write the figure by itself, no unit.

Retrieve solubility (mole fraction) measured for `C1=Cc2ccccc2Nc2ccccc21` and print it.
0.159

---

Conditions: in 1,4-dioxane, 293.15 K
measured-endpoint: solubility (mole fraction)

Please give measured solubility (mole fraction) of the following entry: `C1=Cc2ccccc2Nc2ccccc21`
0.0349

---

Details: in isobutyl acetate, 313.15 K
measured-endpoint: solubility (mole fraction)
// return just the number, without any unit appended

Output solubility (mole fraction) of `C1=Cc2ccccc2Nc2ccccc21`
0.023

---

Conditions: in n-butyl acetate, 283.15 K
measured-endpoint: solubility (mole fraction)
Returns: the value as a bare number; no unit string appended.

# return recorded solubility (mole fraction) for entry `C1=Cc2ccccc2Nc2ccccc21`
0.0152

---

Conditions: in acetonitrile, 313.15 K
measured-endpoint: solubility (mole fraction)

Identify solubility (mole fraction) associated with the molecule `C1=Cc2ccccc2Nc2ccccc21`
0.00782

---

Details: in isopropyl acetate, 283.15 K
measured-endpoint: solubility (mole fraction)
Simply state the number, no unit and no words.

Please give measured solubility (mole fraction) of the following entry: `C1=Cc2ccccc2Nc2ccccc21`
0.0104

---

Conditions: in n-butyl acetate, 313.15 K
measured-endpoint: solubility (mole fraction)
Please reply with the number alone, leaving off any unit.

Provide only the value of recorded solubility (mole fraction) for `C1=Cc2ccccc2Nc2ccccc21`
0.0289

---

Settings: in n-propyl acetate, 308.15 K
measured-endpoint: solubility (mole fraction)
Lab note: record just the number, no unit beside it.

Entry `C1=Cc2ccccc2Nc2ccccc21` needs its solubility (mole fraction) filled in; supply it.
0.0239

---

Details: in DMF, 283.15 K
measured-endpoint: solubility (mole fraction)
Field format: numeric only.

Read the entry `C1=Cc2ccccc2Nc2ccccc21` and write its reported solubility (mole fraction).
0.116

---

Conditions: in isopropyl acetate, 288.15 K
measured-endpoint: solubility (mole fraction)
Number, no unit, nothing else.

Retrieve solubility (mole fraction) measured for `C1=Cc2ccccc2Nc2ccccc21` and print it.
0.0118

---

Conditions: in isobutyl acetate, 318.15 K
measured-endpoint: solubility (mole fraction)
Simply state the number, no unit and no words.

Annotate the compound `C1=Cc2ccccc2Nc2ccccc21` with its measured solubility (mole fraction).
0.0257

---

Details: in isobutyl acetate, 288.15 K
measured-endpoint: solubility (mole fraction)
// return a plain number; no unit text

Answer with the recorded solubility (mole fraction) for the compound listed here: `C1=Cc2ccccc2Nc2ccccc21`
0.0132

---

Conditions: in ethyl acetate, 283.15 K
measured-endpoint: solubility (mole fraction)
The answer should be written as a number, with no unit following it.

Answer with reported solubility (mole fraction) of `C1=Cc2ccccc2Nc2ccccc21`
0.0116

---

Conditions: in acetone, 318.15 K
measured-endpoint: solubility (mole fraction)
Give a plain numeric answer without units written out.

Identify the reported solubility (mole fraction) for the following entry. `C1=Cc2ccccc2Nc2ccccc21`
0.0363

---

Settings: in 1,4-dioxane, 318.15 K
measured-endpoint: solubility (mole fraction)
Format: numeric value only, no unit, no commentary.

Quickly give me recorded solubility (mole fraction) for `C1=Cc2ccccc2Nc2ccccc21`
0.058

---

Settings: in acetonitrile, 293.15 K
measured-endpoint: solubility (mole fraction)
Please give only the number in your answer, with no unit.

Give the measured solubility (mole fraction) for `C1=Cc2ccccc2Nc2ccccc21`
0.00412

---

Conditions: in isobutyl acetate, 308.15 K
measured-endpoint: solubility (mole fraction)
Number only, please.

In one line, give reported solubility (mole fraction) of the entry `C1=Cc2ccccc2Nc2ccccc21` .
0.0206

---

Details: in acetonitrile, 283.15 K
measured-endpoint: solubility (mole fraction)
In your answer, state the number alone without any accompanying words.

Please give measured solubility (mole fraction) of the following entry: `C1=Cc2ccccc2Nc2ccccc21`
0.00298

---

Details: in ethyl acetate, 293.15 K
measured-endpoint: solubility (mole fraction)
Form rule: numeric answer, no unit written next to it.

Please report the measured solubility (mole fraction) for `C1=Cc2ccccc2Nc2ccccc21`
0.015

---

Conditions: in DMAc, 323.15 K
measured-endpoint: solubility (mole fraction)
Give your answer as a number; write no unit.

Given `C1=Cc2ccccc2Nc2ccccc21` , respond with its solubility (mole fraction).
0.203
